Catalogue of growth readings, one per entry.
system: SF-268 CNS; test: NCI-60 one-dose screen, 48 h (100 = growth as untreated, 0 = no growth, -100 = all killed); conditions: 10 µM unless noted
About 83,000 compounds went through this panel and 20% of them were active in at least one assay; those are over-represented in the sample as a whole. Active and inactive are the calls of the source. How the source made its calls: active means growth percent below 10; inactive means the rest.

Solved cases (4 shown):
# compound, growth
data = [
    ("O=C1c2ccccc2CN1c1ccccc1", "107% (inactive)"),
    ("CCCC(=O)OCC(COC(=O)CCC)OC(=O)CCC", "104% (inactive)"),
    ("O=[N+]([O-])c1ccc(N2CCN=N2)cc1", "85.8% (inactive)"),
    ("OCc1cccc(F)c1", "97.4% (inactive)"),
]

growth in this record for C/C=C/C(=O)OCCCCCCCCCCCC : 106% (inactive)

growth in this record for O=C1c2cccnc2-c2ncccc21 : 106% [100 µM] (inactive)

growth in this record for COc1cc(C2c3cc4c(cc3C(OC(=O)C[n+]3ccccc3)C3COC(=O)C23)OCO4)cc(OC)c1OC (centres undefined) : 8.83% (active)

growth in this record for O=C(O)c1ccc2c3ccc(C(=O)O)c4c(C(=O)O)ccc(c5ccc(C(=O)O)c1c25)c43 : 105% (inactive)

growth in this record for CCOCCC(=O)O : 112% (inactive)

* * *

test system: MOLT-4 leukemia; assay: NCI-60 one-dose screen, 48 h (100 = growth as untreated, 0 = no growth, -100 = all killed); conditions: 10 µM unless noted
The panel holds about 83,000 compounds, 20% with a hit somewhere; the sample as a whole holds those more often.
Could you mark each record satisfied if its growth falls strictly under 90%, and not satisfied if it equals or exceeds it?

# example entries with known answers
# compound, classification
rows = [
    ("O=[N+]([O-])c1ccc(N/N=C/C2CCCCCC2)c([N+](=O)[O-])c1", "satisfied"),
    ("CC(=O)Nc1cscc1NC(C)=O", "not satisfied"),
    ("Cc1ccc(NC(=S)N/C=C(\\c2ccccc2)S(=O)Cc2ccccc2)c(C)c1 (stereo unspecified)", "not satisfied"),
    ("O=P(O)(O)OC1C(OP(=O)(O)O)C(OP(=O)(O)O)C(OP(=O)(O)O)C(OP(=O)(O)O)C1OP(=O)(O)O.[Cu+2] (stereo unspecified)", "not satisfied"),
]

Attention now turns to another entry.
Take the compound O=C(c1ccccc1)C1(Br)CCCCC1 and say whether its growth is less than 90%.
not satisfied

* * *

Catalogue of growth readings, one per entry.
tested on: K-562 leukemia; assay: NCI-60 one-dose screen, 48 h (100 = growth as untreated, 0 = no growth, -100 = all killed); conditions: 10 µM unless noted
The panel holds about 83,000 compounds, 20% with a hit somewhere; the sample as a whole holds those more often.
Numeric answer only, unit % assumed.

growth in this record for C=CCN1C(=O)c2ccccc2C1=O : 106

growth in this record for CC(O)CCNC(c1ccccc1)C(O)c1ccccc1 (centres undefined) : 101

growth in this record for CC(NC(=O)CCl)c1ccccc1 (centres undefined) : 109

growth in this record for N#Cc1c[nH]n2ccnc12 : 106

growth in this record for C/C=C/C(=O)OCCCCCCCCCCCC : 93.3

growth in this record for COc1ccc2oc3c(ccc[n+]3C)c(=O)c2c1 : 99

growth in this record for O=COCCCc1ccccc1 : 104

growth in this record for COC(=O)C(Cc1cn(C(C)=O)c2ccccc12)P(=O)(OC)OC (centres undefined) : 102

* * *

tested on: U251 CNS; test: NCI-60 one-dose screen, 48 h (100 = growth as untreated, 0 = no growth, -100 = all killed); details: 10 µM unless noted
The panel holds about 83,000 compounds, 20% with a hit somewhere; the sample as a whole holds those more often.
Catalogue of growth readings, one per entry.
Numeric answer only, unit % assumed.

Solved cases (3 shown):
# compound, growth, %
measured = [
    ("CC(C)=NOC(C)C(=O)O (stereo not drawn)", 104),
    ("COc1cc2c(cc1O)C(=O)CCCC2", 96.8),
    ("C/C=C(/C(=O)NC(N)=O)C(C)C", 98.8),
]

growth in this record for Cc1cc(Cl)nc(Nc2ccccc2)n1 : 98.7

growth in this record for ON=C(C1CCCCC1)C1CCCCC1 : 98.1

growth in this record for CCOCCC(=O)O : 106

growth in this record for CCOP(=O)(OCC)/C(C#N)=C/c1c(C)[nH]c2ccccc12 : 88.9

growth in this record for COc1ccc2oc3cc(NCCN(C)C)ccc3c(=O)c2c1 : 76.7

growth in this record for O=C1C2=C(Nc3cc(Cl)ccc3N2)OC1c1c[nH]c2ccc(COc3ccccc3)cc12 (stereo not drawn) : 52.2

growth in this record for CN(C)CC(CN(C)C)C(O)c1ccccc1 (stereo not drawn) : 99.5

growth in this record for O=[N+]([O-])c1ccc(N/N=C/C2CCCCCC2)c([N+](=O)[O-])c1 : 96.8

growth in this record for COC(=O)CCOc1ccccc1 : 96

growth in this record for CCCCCCC(C)CC1=C(O)c2ccccc2C(=O)C1=O (stereo not drawn) : 46.3

* * *

System: MDA-MB-435 melanoma
Experiment: NCI-60 one-dose screen, 48 h (100 = growth as untreated, 0 = no growth, -100 = all killed)
Details: 10 µM unless noted
Procedure: Growth inhibition of the MDA-MB-435 human Melanoma tumor cell line is measured as a screen for anti-cancer activity. Cells are grown in 96 well plates and exposed to the test compound for 48 hours. Compounds are tested at a single concentration, which is 10^-5 M for most compounds. The reported endpoint is percent growth (GI% or GIPRCNT), where numbers from 0 - 100% represent growth inhibition, and numbers from -100% - 0 represent cell death. […]
About 83,000 compounds went through this panel and 20% of them were active in at least one assay; those are over-represented in the sample as a whole. Active and inactive are the calls of the source. Rule for the calls: active = growth percent below 10; inactive = the rest.
propertyLabel: growth

# molecule, result
measured = [
    ("CC(NC(=O)CCl)c1ccccc1 (stereo not given)", "99.7% (inactive)"),
    ("CCCCNC(=O)c1ccccc1C", "97.9% (inactive)"),
    ("O=C1c2ccccc2C(c2ccccc2)C1c1ccccc1 (stereo not given)", "95.9% (inactive)"),
]

growth in this record for CCOP(C)(=O)/C(Cc1ccc(OC)c(OC)c1)=N\O (stereo not given) : 104% (inactive)

growth in this record for Cc1cc(-c2ccc(N=Nc3c(C)nn(-c4ccc(S(=O)(=O)O)cc4)c3O)c(C)c2)ccc1N=Nc1ccc(O)c(C(=O)O)c1 : 110% (inactive)

growth in this record for Nc1ccc(Cl)c(S(=O)(=O)O)c1 : 107% (inactive)

growth in this record for COC(=O)CCOc1ccccc1 : 109% (inactive)

growth in this record for O=C1c2ccccc2CN1c1ccccc1 : 97.9% (inactive)

growth in this record for O=[N+]([O-])c1ccc(N/N=C/C2CCCCCC2)c([N+](=O)[O-])c1 : 87.6% (inactive)

growth in this record for NNC(=O)Nc1ccccc1 : 103% (inactive)

growth in this record for CCc1ccccc1-n1[nH]c(C)c(C=N)c1=O : 104% (inactive)

growth in this record for CCOC(=O)c1ccc(C(=N)N)cc1 : 109% (inactive)

growth in this record for CCOc1ccc(/C=C\C(=O)O)cc1 : 107% (inactive)

growth in this record for O=C(N=C1C(=O)C2(CCCCC2)C2(N=C(c3ccccc3)OC2=O)C12CCCCC2)c1ccccc1 (stereo not given) : 89.1% (inactive)

growth in this record for CCN(CC)C(=S)SCCO : 111% (inactive)

growth in this record for CCCC(=O)OCC(COC(=O)CCC)OC(=O)CCC : 106% (inactive)

growth in this record for COc1ccc(/C=N/NC(N)=S)cc1 : 100% (inactive)

* * *

test system: MCF7 breast; assay: NCI-60 one-dose screen, 48 h; conditions: 10 µM
Compounds without any hit were thinned out: in the full panel of roughly 83,000, 20% have a hit. The source made the active and inactive calls. The calls were made as follows: active = growth percent below 10; inactive = the rest.
Outcome (select one): active, inactive

# example entries with known answers
# compound, classification
rows = [
    ("COc1cc2oc3cc(=O)cc4oc(-c5ccccc5)cc(c2c2c1CCC(c1ccccc1)O2)c43 (stereo not given)", "inactive"),
    ("N#CC(=S)Nc1ccc(Cl)c(Cl)c1", "active"),
    ("O=c1ccn2c(n1)OC1CC2OC1COC(c1ccccc1)(c1ccccc1)c1ccccc1 (stereo not given)", "inactive"),
]

Hi, do you know how C#CCOC(=O)C(N)CS (stereo not given) came out in this test?
inactive

Hi, do you know how CS/C(=C\c1ccc(C(=O)c2ccc(C)cc2)n1C)S(C)=O (stereo not given) came out in this test?
inactive

* * *

tested on: OVCAR-4 ovarian; assay: NCI-60 one-dose screen, 48 h (100 = growth as untreated, 0 = no growth, -100 = all killed); settings: 10 µM unless noted
Compounds without any hit were thinned out: in the full panel of roughly 83,000, 20% have a hit.
propertyLabel: growth (%)
Numeric answer only, unit % assumed.

Solved cases (2 shown):
# molecule, growth, %
records = [
    ("O=c1[nH]c(=S)[nH]n1C(=S)n1[nH]c(=S)[nH]c1=O", 112),
    ("Cc1c(Cl)cc(Cl)c(N)c1Cl", 108),
]

growth in this record for O=C1Cc2ccccc2C(=O)N1 : 63.4

growth in this record for COc1ccc2oc3c(ccc[n+]3C)c(=O)c2c1 : 108
